# System: Candida tropicalis
# Method notes: Anti-fungal activity against Candida tropicalis assessed as inhibition of fungal growth
# Format: functional
# Reported conditions: Candida tropicalis; read-out: MIC
Test readout: MIC (µM)
Reply with just the number (in µM).

Reference set (3 entries):
{"Molecule": "CCCCc1nc(Cl)c(C2NC(=O)NC(CN3CCN(CC(=O)c4nccs4)CC3)=C2C(=O)OCC)[nH]1 (centres undefined)", "Result number": 466}
{"Molecule": "CCCCc1nc(Cl)c(C2NC(=O)NC(CN3CCN(CC(=O)c4ccccc4)CC3)=C2C(=O)OCC)[nH]1 (centres undefined)", "Result number": 472}
{"Molecule": "CCOC(=O)C1=C(CN2CCN(C(=O)/C(=N/OC)c3csc(N)n3)CC2)NC(=O)NC1c1ccc(OC)c(OC)c1OC (centres undefined)", "Result number": 398}

Prompt: Can you share its MIC? I mean this molecule: CCOC(=O)C1=C(CN2CCN(C(=O)/C(=N/OC)c3csc(N)n3)CC2)NC(=O)NC1c1ccc(C#N)cc1 (centres undefined)
Completion: 460

Reference source: ChEMBL document CHEMBL5505979
